# Tested on: tannase derived from Aspergillus awamori
# Assay Details: Substrate specificity of tannase (rhodanine method)
# Assay type: biochemical
# Setup Conditions: 0.17% tannic acid or 10 mM gallic acid ester, pH 5.0, 37° C., 30 minutes; tannic acid = 100%
Examples of compounds with documented dissolution activity relative to tannic acid follow.
Property Measured: dissolution activity relative to tannic acid (%)

>>> assay_value("O=C(OC[C@H]1O[C@@H](OC(=O)c2cc(O)c(O)c(OC(=O)c3cc(O)c(O)c(O)c3)c2)[C@H](OC(=O)c2cc(O)c(O)c(OC(=O)c3cc(O)c(O)c(O)c3)c2)[C@@H](OC(=O)c2cc(O)c(O)c(OC(=O)c3cc(O)c(O)c(O)c3)c2)[C@@H]1OC(=O)c1cc(O)c(O)c(OC(=O)c2cc(O)c(O)c(O)c2)c1)c1cc(O)c(O)c(OC(=O)c2cc(O)c(O)c(O)c2)c1")
100
>>> assay_value("CC(C)CCOC(=O)c1cc(O)c(O)c(O)c1 [isoamyl gallate]")
27
>>> assay_value("COC(=O)c1cc(O)c(O)c(O)c1 [methyl gallate]")
41
>>> assay_value("CCOC(=O)c1cc(O)c(O)c(O)c1 [ethyl gallate]")
30
>>> assay_value("CCCOC(=O)c1cc(O)c(O)c(O)c1 [propyl gallate]")
29
